# Measurement notes: in vivo
# Recorded conditions: rat, iv, 1 mg/kg
# Description: Half life in rat at 1 mg/kg, iv
Please note: half-life exactly at 3 h is not fulfilled. Only values below 3 h get fulfilled.

Study these solved cases before continuing.
> print(dat)
                                   molecule    class.label
1  COc1ccc(F)cc1-c1c(F)cnc2[nH]c(C3=CCN([C@H]4CC[C@H](CC(=O)O)CC4)CC3)cc12      fulfilled
2  COc1ccc(F)cc1-c1ccnc2[nH]c(C3=CCN([C@H]4CC[C@H](C(=O)O)CC4)CC3)cc12  not fulfilled
3  COc1ccc(F)cc1-c1ccnc2[nH]c(C3=CCN([C@H]4CC[C@@H](C(=O)O)CC4)CC3)cc12  not fulfilled
4  COc1ccc(F)cc1-c1ccnc2[nH]c(C3=CCC(C(=O)O)CC3)cc12 (configuration not stated)      fulfilled
5  COc1ccc(F)cc1-c1c(F)cnc2[nH]c(C3=CCN([C@H]4CC[C@H](C(=O)O)CC4)CC3)cc12  not fulfilled

Please look at the following molecule next.
Query: Identify whether the molecule COc1ccc(F)cc1-c1ccnc2[nH]c(C3=CCN([C@H]4CC[C@@H](CC(=O)O)CC4)CC3)cc12 records half-life below 3 h.
Response: fulfilled
